Numbers sourced from ChEMBL document CHEMBL4602617.

Target: Protein kinase C beta type (Homo sapiens, UniProt P05771)
Sequence (P05771 whole entry): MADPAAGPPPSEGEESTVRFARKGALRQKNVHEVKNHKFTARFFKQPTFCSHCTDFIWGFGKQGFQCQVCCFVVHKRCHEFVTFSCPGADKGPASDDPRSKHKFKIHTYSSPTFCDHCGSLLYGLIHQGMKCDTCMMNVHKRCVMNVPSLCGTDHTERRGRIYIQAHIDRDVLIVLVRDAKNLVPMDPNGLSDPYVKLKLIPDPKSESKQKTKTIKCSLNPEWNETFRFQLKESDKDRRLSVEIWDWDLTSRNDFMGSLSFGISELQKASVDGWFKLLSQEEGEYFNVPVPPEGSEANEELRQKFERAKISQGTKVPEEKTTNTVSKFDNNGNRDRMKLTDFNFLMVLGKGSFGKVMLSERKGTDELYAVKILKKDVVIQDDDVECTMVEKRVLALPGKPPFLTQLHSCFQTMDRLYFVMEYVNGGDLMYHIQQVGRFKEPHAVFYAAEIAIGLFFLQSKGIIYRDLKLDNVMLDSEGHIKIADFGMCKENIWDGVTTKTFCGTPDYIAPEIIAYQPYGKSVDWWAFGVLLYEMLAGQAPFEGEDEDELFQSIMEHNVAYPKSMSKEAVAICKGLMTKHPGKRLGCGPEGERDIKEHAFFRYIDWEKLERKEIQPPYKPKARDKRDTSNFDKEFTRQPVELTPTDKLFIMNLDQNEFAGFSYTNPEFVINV
Assay: Inhibition of recombinant full length human GST-tagged PKCbeta1 expressed in insect expression system using serine/threonine-7 peptide as substrate incubated for 60 mins in presence of ATP by Z'-LYTE assay

{"chemical-smiles": "C[C@@H]1C[C@H]1C(=O)N1CCN(c2cnc(C#N)c(-c3cnn(C)c3)n2)C[C@H]1C", "assay-system": "Protein kinase C beta type (Homo sapiens, UniProt P05771)", "IC50": "> 100 µM"}

###

Biological target: Sodium channel protein type 5 subunit alpha (Homo sapiens, UniProt Q14524)
Assay: Inhibition of Nav1.5 (unknown origin)
pIC50: −log10 of the molar value.

{"chemical-smiles": "C[C@@H]1C[C@H]1C(=O)N1CCN(c2cnc(C#N)c(-c3cnn(C)c3)n2)C[C@H]1C", "pIC50": "< 4.52"}

###

Experiment: Half life in dog at 0.5 mg/kg, iv 1 mg/kg, po
Assay type: ADME, organism-based, Canis lupus familiaris
Conditions: in vivo
readout-label: half-life (h)

{"chemical-smiles": "C[C@@H]1C[C@H]1C(=O)N1CCN(c2cnc(C#N)c(-c3cnn(C)c3)n2)C[C@H]1C", "endpoint-value": 2.9}

###

Target: Serine/threonine-protein kinase D3 (Homo sapiens, UniProt O94806)
Sequence (O94806 whole entry): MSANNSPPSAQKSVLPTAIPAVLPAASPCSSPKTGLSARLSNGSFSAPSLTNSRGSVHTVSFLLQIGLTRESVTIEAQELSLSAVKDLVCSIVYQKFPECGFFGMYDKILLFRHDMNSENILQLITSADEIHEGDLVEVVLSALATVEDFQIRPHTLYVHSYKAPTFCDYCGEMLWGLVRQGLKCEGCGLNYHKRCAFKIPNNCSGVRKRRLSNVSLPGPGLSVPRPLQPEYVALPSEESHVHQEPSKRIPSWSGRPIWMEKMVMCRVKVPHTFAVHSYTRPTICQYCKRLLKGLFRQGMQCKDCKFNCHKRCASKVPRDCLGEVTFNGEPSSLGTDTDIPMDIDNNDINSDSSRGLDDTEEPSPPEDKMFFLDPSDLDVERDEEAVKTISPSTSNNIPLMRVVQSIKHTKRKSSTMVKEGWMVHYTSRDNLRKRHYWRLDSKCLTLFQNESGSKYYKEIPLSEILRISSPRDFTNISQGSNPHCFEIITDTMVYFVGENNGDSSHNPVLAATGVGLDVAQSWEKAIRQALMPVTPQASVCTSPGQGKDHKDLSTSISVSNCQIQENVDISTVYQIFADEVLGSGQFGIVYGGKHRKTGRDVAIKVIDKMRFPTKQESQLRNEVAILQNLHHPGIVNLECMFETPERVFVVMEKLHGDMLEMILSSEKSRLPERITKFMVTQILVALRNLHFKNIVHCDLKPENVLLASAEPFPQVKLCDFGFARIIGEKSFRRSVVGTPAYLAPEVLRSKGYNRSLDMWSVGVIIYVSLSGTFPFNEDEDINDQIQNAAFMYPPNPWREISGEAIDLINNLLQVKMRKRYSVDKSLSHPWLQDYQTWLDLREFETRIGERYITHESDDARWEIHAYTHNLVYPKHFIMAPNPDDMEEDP
Assay: Inhibition of recombinant full length human GST-tagged PKD3 expressed in baculovirus expression system using serine/threonine-17 peptide as substrate incubated for 60 mins in presence of ATP by Z'-LYTE assay
readout-label: IC50

{"chemical-smiles": "C[C@@H]1C[C@H]1C(=O)N1CCN(c2cnc(C#N)c(-c3cnn(C)c3)n2)C[C@H]1C", "endpoint-value": "> 100 µM"}

###

Molecular target: Ribosomal protein S6 kinase beta-1 (Homo sapiens, UniProt P23443)
Sequence (P23443 whole entry, the tested form may be a part): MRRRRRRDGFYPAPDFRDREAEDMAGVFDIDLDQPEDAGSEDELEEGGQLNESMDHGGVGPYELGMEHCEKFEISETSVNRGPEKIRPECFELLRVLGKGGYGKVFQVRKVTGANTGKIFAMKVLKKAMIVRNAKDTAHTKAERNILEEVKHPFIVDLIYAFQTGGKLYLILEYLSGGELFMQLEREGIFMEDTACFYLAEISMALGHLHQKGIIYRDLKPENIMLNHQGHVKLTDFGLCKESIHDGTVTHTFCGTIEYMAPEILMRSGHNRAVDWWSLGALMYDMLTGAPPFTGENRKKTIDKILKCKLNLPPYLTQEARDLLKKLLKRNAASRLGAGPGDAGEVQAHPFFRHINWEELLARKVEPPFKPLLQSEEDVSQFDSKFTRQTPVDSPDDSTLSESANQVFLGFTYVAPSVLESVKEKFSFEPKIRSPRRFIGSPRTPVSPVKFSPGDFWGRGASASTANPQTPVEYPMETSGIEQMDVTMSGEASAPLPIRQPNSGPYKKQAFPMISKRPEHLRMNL
Experiment: Inhibition of recombinant human GST-tagged p70S6K catalytic domain expressed in baculovirus expression system using serine/threonine-7 peptide as substrate incubated for 60 mins in presence of ATP by Z'-LYTE assay

{"chemical-smiles": "C[C@@H]1C[C@H]1C(=O)N1CCN(c2cnc(C#N)c(-c3cnn(C)c3)n2)C[C@H]1C", "assay-system": "Ribosomal protein S6 kinase beta-1 (Homo sapiens, UniProt P23443)", "IC50": "> 100 µM"}

###

Target: Serine/threonine-protein kinase 4 (Homo sapiens)
Sequence (Q13043 whole entry): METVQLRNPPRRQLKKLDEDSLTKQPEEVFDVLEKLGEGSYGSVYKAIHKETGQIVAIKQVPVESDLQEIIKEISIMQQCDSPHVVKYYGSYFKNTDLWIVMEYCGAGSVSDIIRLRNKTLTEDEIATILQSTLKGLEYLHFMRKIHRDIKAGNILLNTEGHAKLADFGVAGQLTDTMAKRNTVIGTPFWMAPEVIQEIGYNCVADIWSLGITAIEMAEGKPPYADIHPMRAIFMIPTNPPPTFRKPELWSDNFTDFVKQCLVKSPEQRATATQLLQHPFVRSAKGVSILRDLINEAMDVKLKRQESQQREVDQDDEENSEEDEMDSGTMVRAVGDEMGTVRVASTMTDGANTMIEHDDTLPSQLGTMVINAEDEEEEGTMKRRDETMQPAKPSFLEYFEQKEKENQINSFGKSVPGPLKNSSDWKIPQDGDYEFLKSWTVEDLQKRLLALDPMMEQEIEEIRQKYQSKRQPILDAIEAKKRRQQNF
Assay: Inhibition of recombinant full length human GST-tagged MST1 expressed in baculovirus expression system using serine/threonine-7 peptide as substrate incubated for 60 mins in presence of ATP by Z'-LYTE assay
pIC50: −log10 of the molar value.
readout-label: pIC50

{"chemical-smiles": "C[C@@H]1C[C@H]1C(=O)N1CCN(c2cnc(C#N)c(-c3cnn(C)c3)n2)C[C@H]1C", "assay-system": "Serine/threonine-protein kinase 4 (Homo sapiens)", "endpoint-value": "< 4.00"}

###

Target: Serine/threonine-protein kinase PAK 2 (Homo sapiens)
Sequence (Q13177 whole entry): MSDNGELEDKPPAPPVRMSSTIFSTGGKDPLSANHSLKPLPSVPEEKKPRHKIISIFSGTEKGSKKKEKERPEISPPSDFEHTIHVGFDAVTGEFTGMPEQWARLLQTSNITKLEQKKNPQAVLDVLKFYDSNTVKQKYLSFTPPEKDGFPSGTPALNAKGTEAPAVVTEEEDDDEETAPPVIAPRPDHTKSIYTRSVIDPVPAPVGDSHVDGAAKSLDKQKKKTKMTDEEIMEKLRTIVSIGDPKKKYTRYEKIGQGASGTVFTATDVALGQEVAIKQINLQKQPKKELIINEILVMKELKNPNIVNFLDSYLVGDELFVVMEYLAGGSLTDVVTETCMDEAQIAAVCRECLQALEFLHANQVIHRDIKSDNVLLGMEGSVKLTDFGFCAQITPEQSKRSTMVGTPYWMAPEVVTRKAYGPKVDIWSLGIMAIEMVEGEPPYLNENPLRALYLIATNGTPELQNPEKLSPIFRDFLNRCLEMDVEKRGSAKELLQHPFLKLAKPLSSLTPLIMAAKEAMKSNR
Experiment: Inhibition of recombinant full length human GST-tagged PAK2 expressed in baculovirus expression system using serine/threonine-20 peptide as substrate incubated for 60 mins in presence of ATP by Z'-LYTE assay
pIC50: −log10 of the molar value.
readout-label: pIC50

{"chemical-smiles": "C[C@@H]1C[C@H]1C(=O)N1CCN(c2cnc(C#N)c(-c3cnn(C)c3)n2)C[C@H]1C", "endpoint-value": "< 4.00"}

###

Target: PI3-kinase p110-delta/p85-alpha (Homo sapiens, UniProt O00329)
Sequence (P27986 whole entry): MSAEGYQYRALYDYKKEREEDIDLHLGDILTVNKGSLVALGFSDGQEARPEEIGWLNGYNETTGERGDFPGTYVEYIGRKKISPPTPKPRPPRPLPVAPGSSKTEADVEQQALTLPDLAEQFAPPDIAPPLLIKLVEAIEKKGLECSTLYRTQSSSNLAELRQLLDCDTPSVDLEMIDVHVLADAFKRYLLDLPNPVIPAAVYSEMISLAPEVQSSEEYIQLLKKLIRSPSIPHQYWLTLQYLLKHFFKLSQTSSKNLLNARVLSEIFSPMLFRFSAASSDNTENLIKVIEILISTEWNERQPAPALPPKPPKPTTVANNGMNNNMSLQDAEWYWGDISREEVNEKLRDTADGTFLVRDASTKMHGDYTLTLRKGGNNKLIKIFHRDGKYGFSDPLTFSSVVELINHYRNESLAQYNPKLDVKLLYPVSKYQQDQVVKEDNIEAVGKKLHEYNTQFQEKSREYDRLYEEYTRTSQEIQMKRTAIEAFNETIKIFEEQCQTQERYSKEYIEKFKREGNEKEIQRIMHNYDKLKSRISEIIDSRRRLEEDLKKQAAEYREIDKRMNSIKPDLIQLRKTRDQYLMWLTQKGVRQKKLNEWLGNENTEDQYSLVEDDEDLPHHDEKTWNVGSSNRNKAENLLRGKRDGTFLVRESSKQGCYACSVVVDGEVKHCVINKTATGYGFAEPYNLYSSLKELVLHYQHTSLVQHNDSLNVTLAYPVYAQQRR
Sequence (O00329 whole entry): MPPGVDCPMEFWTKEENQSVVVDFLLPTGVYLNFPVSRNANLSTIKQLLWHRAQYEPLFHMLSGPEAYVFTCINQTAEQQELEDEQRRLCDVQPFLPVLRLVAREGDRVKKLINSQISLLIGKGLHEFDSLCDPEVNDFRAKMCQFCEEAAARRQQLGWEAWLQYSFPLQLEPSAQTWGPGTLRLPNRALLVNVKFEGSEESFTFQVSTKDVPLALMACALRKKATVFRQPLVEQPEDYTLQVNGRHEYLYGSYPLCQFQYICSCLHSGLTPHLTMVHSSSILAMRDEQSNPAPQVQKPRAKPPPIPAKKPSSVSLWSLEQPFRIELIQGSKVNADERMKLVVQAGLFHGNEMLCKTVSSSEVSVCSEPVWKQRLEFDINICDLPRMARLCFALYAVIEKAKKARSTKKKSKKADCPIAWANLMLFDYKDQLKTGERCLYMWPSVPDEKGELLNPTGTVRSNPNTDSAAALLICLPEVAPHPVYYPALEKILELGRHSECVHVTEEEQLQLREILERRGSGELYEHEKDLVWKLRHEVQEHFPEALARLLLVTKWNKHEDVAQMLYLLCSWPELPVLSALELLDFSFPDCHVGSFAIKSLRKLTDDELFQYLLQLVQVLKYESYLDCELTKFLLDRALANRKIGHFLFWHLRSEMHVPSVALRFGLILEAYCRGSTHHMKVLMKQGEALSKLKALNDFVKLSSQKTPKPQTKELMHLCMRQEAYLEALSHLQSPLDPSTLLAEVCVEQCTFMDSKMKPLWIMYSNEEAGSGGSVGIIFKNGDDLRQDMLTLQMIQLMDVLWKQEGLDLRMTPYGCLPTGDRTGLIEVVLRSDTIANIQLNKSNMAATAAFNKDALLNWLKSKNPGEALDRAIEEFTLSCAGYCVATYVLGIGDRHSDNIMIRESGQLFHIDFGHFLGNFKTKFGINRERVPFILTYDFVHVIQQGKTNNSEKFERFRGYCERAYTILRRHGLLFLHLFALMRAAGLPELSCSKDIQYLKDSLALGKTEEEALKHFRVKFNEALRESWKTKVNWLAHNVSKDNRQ
Experiment: Inhibition of recombinant human full-length N-terminal GST-tagged p110delta/untagged full-length p85alpha expressed in baculovirus infected Sf21 cells using PIP2 as substrate preincubated for 15 mins followed by substrate addition and measured after 1 hr by HTRF assay
pIC50: −log10 of the molar value.
Measured pIC50, listed per entry.

{"chemical-smiles": "C[C@@H]1CN(c2nc(-c3cnn(C)c3)ncc2C#N)CCN1C(=O)C1(C)CC1", "pIC50": 5.98}
{"chemical-smiles": "C[C@@H]1CN(c2cnc(C#N)c(-c3cnn(C)c3)n2)CCN1C(=O)C1CC1", "pIC50": 7.48}
{"chemical-smiles": "C[C@@H]1C[C@H]1C(=O)N1CCN(c2nc(-c3cnn(C)c3)ncc2C#N)C[C@H]1C", "pIC50": 7.49}
{"chemical-smiles": "CCC(=O)N1CCN(c2nc(-c3cnn(C)c3)ncc2C#N)C[C@H]1C", "pIC50": 6.58}
{"chemical-smiles": "C[C@@H]1CN(c2ncc(C#N)c(-c3cnn(C)c3)n2)CCN1C(=O)C1CC1", "pIC50": 7.68}

###

Molecular target: Myosin light chain kinase 2, skeletal/cardiac muscle (Homo sapiens)
Sequence (Q9H1R3 whole entry): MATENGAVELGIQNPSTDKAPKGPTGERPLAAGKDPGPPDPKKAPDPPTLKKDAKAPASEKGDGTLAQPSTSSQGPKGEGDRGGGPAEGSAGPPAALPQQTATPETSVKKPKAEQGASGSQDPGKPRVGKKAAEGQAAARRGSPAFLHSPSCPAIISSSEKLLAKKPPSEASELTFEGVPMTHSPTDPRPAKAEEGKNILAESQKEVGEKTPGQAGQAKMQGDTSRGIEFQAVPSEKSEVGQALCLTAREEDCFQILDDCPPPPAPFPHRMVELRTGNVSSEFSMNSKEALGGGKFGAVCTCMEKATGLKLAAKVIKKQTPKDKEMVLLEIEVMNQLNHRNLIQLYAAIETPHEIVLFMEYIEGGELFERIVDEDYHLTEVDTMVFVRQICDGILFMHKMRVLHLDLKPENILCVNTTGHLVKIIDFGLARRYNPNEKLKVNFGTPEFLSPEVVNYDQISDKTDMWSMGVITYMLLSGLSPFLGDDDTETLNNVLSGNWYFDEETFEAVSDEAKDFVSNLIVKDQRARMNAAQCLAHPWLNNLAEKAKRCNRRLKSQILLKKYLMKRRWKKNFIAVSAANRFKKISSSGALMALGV
Test: Inhibition of recombinant full length human GST-tagged MYLK2 expressed in baculovirus expression system using […] peptide as substrate incubated for 60 mins in presence of ATP by Z'-LYTE assay

{"chemical-smiles": "C[C@@H]1C[C@H]1C(=O)N1CCN(c2cnc(C#N)c(-c3cnn(C)c3)n2)C[C@H]1C", "IC50": "> 100 µM"}

###

Target: Serine/threonine-protein kinase PLK1 (Homo sapiens)
Assay: Inhibition of recombinant full length human His-tagged PLK1 expressed in baculovirus expression system using serine/threonine-16 peptide as substrate incubated for 60 mins in presence of ATP by Z'-LYTE assay
readout-label: IC50

{"chemical-smiles": "C[C@@H]1C[C@H]1C(=O)N1CCN(c2cnc(C#N)c(-c3cnn(C)c3)n2)C[C@H]1C", "endpoint-value": "> 100 µM"}

###

Target: UniProt:P35968
Test: Inhibition of recombinant human His-tagged KDR (789 to 1356 residues) expressed in baculovirus expression system using Tyr1 as substrate incubated for 1 hr in presence of ATP by Z'-LYTE assay
readout-label: IC50 (µM)

{"chemical-smiles": "C[C@@H]1C[C@H]1C(=O)N1CCN(c2cnc(C#N)c(-c3cnn(C)c3)n2)C[C@H]1C", "assay-system": "UniProt:P35968", "endpoint-value": 37.6}

###

Target: Tyrosine-protein kinase Fes/Fps (Homo sapiens, UniProt P07332)
Sequence (P07332 whole entry): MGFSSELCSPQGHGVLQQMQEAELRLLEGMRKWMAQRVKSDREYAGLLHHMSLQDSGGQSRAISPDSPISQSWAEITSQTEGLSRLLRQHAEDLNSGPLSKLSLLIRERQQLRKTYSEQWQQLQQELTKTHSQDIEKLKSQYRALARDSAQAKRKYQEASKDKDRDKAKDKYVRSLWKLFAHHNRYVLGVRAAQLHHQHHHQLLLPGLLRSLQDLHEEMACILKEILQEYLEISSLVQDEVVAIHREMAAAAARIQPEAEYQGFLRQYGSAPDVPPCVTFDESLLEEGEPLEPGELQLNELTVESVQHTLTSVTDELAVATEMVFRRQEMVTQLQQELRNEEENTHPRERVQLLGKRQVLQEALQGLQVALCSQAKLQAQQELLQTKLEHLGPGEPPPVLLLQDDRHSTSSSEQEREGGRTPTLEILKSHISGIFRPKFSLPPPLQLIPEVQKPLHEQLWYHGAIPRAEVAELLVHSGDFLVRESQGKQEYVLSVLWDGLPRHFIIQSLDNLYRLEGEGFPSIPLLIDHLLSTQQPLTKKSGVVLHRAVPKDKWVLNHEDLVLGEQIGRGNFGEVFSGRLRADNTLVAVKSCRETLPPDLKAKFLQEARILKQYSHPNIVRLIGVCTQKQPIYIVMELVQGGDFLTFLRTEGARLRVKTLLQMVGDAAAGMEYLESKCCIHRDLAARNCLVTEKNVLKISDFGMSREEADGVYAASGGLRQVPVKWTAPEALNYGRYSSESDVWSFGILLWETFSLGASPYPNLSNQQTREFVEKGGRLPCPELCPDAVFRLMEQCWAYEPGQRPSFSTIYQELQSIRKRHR
Test: Inhibition of recombinant His-tagged full length human FES expressed in baculovirus expression system using Tyr 01 peptide as substrate after 1 hr by Z'-LYTE assay

{"chemical-smiles": "C[C@@H]1C[C@H]1C(=O)N1CCN(c2cnc(C#N)c(-c3cnn(C)c3)n2)C[C@H]1C", "IC50": "> 100 µM"}
